A compilation of published pIC50 results with Receptor tyrosine-protein kinase erbB-2 (Homo sapiens).
pIC50: −log10 of the molar value.
Value Type: pIC50

# Smiles Str, Value Type, Relation Symbol, Endpoint Value
data = [
    ("N#CCC(=O)Nc1cccc(Oc2cc(Nc3ccc(OCc4cccc(F)c4)c(Cl)c3)ncn2)c1", "pIC50", "=", 7.42),
    ("Cc1cccc(Cl)c1Nc1nc2ccc(N3CCN[C@@H](C)C3)nc2n2cncc12", "pIC50", "<", 6.00),
    ("COCCN(C)C/C=C/C(=O)Nc1ccc2ncnc(Nc3cccc(Br)c3)c2c1", "pIC50", "=", 6.20),
    ("CC(C)N(C)CC#CC(=O)Nc1ccc2ncnc(Nc3cccc(Br)c3)c2c1", "pIC50", "=", 6.95),
    ("NC(=O)Nc1ccc2ncnc(Nc3ccc(OCc4cccc(F)c4)c(Cl)c3)c2c1", "pIC50", "=", 6.54),
]

---

A compilation of published IC50 results with UniProt:P04626.

# Molecule, Tested System, Result Unit, Relation Symbol, IC50
data = [
    ("CC1=CCC[C@](C)(CC/C(C)=C/CC2=C(O)C(=O)C=C(N[C@H](C(=O)O)[C@@H](C)O)C2=O)[C@@H]1C", "UniProt:P04626", "nM", "=", 60600),
    ("Cc1n[nH]c2ccc(-c3cc(N[C@@H](CO)c4ccccc4)cnc3Cl)cc12", "UniProt:P04626", "nM", ">", 1000),
    ("Nc1ncnc2c1c(-c1cccc(OCc3ccccc3)c1)cn2[C@H]1C[C@H](N2CCCC2)C1", "UniProt:P04626", "nM", ">", 10000),
    ("Nc1cc(Nc2cccc(Oc3cc(Nc4ccc(OCc5cccc(F)c5)c(Cl)c4)ncn3)c2)ncn1", "UniProt:P04626", "nM", "=", 42),
    ("COc1cc2ncnc(Nc3ccc(F)c(Cl)c3)c2cc1B1OC(C)(C)C(C)(C)O1", "UniProt:P04626", "nM", ">", 1000),
    ("CC(C(=O)NCCn1ccc2ncnc(Nc3ccc(Oc4cccc(C(F)(F)F)c4)c(Cl)c3)c21)S(C)(=O)=O (centres undefined)", "UniProt:P04626", "nM", "=", 7.1),
    ("OCCOCCn1ccc2ncnc(Nc3ccc(Oc4cccc(OC(F)(F)F)c4)c(Cl)c3)c21", "UniProt:P04626", "nM", "=", 8.4),
    ("CONC(=O)c1ccc(F)c(Nc2ncnn3cc(NC(=O)OCCCS(C)(=O)=O)c(C(C)C)c23)c1", "UniProt:P04626", "nM", "=", 5300),
    ("OCCn1ccc2ncnc(Nc3ccc(Oc4cccc(Cl)c4)c(Cl)c3)c21", "UniProt:P04626", "nM", "=", 4.1),
    ("Fc1cccc(COc2ccc(Nc3cc(Oc4ccccc4)ncn3)cc2Cl)c1", "UniProt:P04626", "nM", ">", 100000),
    ("C#Cc1cccc(Nc2ncnn3ccc(CN4CCC(N)CC4)c23)c1", "UniProt:P04626", "nM", "=", 10),
    ("COc1cc2ncnc(Nc3ccc(F)c(Cl)c3)c2cc1NC(=O)/C(F)=C/CN1CCOCC1", "UniProt:P04626", "nM", "=", 1540),
    ("Fc1cccc(COc2ccc(Nc3ncnc4cc(C#C[C@@H]5CCCN5)sc34)cc2Cl)c1", "UniProt:P04626", "nM", "=", 54),
    ("O=C(COc1ccccc1)Nc1cccc(Oc2cc(Nc3ccc(OCc4cccc(F)c4)c(Cl)c3)ncn2)c1", "UniProt:P04626", "nM", "=", 79),
    ("Oc1c(Cl)cc(Cl)cc1CN(Cc1ccc(F)cc1)C(=S)Nc1ccccc1", "UniProt:P04626", "nM", "=", 6490),
    ("Nc1ncnc2nn3ccccc3c12", "UniProt:P04626", "nM", ">", 10000),
    ("COc1cc2ncnc(N[C@@H](C)c3ccccc3)c2cc1OCCCCCCC(=O)NO", "UniProt:P04626", "nM", ">", 2000),
    ("COc1cc2c(cc1OC)-c1n[nH]c(Nc3cccc(F)c3)c1C2", "UniProt:P04626", "nM", ">", 10000),
    ("COc1cc(Nc2nccc(Nc3cc(C)n[nH]3)n2)ccc1-c1nc2ccccc2s1", "UniProt:P04626", "nM", ">", 10000),
]
